- assay-info: Mouse PK Study
- Format: in vivo
- experimental-context: plasma; Po dosing (10 mg/kg), male CD-1 mouse
Rule for this label: rule met means AUC(0-t) is less than 20000 ng·h/mL; rule not met means AUC(0-t) is at least 20000 ng·h/mL.

[
  {
    "compound": "COc1cc(CN2CCN(C3CC4(C3)CN(c3ccc(C(=O)NS(=O)(=O)c5ccc(NC[C@H]6CC[C@](C)(O)CC6)c([N+](=O)[O-])c5)c(Oc5cnc6[nH]ccc6c5)c3)C4)[C@H](c3ccccc3C(C)C)C2)ccc1C1CC1",
    "classification": "rule met"
  },
  {
    "compound": "COc1ccc(CN2CCN(C3CC4(CCN(c5ccc(C(=O)NS(=O)(=O)c6ccc(NCC7(F)CCOCC7)c([N+](=O)[O-])c6)c(Oc6cnc7[nH]ccc7c6)c5)CC4)C3)[C@H](c3ccccc3C(C)C)C2)cc1 (single isomer, unassigned)",
    "classification": "rule not met"
  },
  {
    "compound": "CC(C)c1ccccc1[C@@H]1CN(Cc2ccc(F)c(F)c2)CCN1C1CC2(CCN(c3ccc(C(=O)NS(=O)(=O)c4ccc(NC[C@H]5CC[C@](C)(O)CC5)c([N+](=O)[O-])c4)c(Oc4cnc5[nH]ccc5c4)c3)CC2)C1 (single isomer, unassigned) [Example 52a]",
    "classification": "rule not met"
  },
  {
    "compound": "COc1cc(CN2CCN(C3CC4(C3)CN(c3ccc(C(=O)NS(=O)(=O)c5ccc(NC[C@H]6CC[C@](C)(O)CC6)c([N+](=O)[O-])c5)c(Oc5cnc6[nH]cc(F)c6c5)c3)C4)[C@H](c3ccccc3C(C)C)C2)ccc1C1CC1",
    "classification": "rule met"
  },
  {
    "compound": "COc1cc(CN2CCN(C3CC4(C3)CN(c3ccc(C(=O)NS(=O)(=O)c5ccc(NC[C@H]6CC[C@](C)(O)CC6)c([N+](=O)[O-])c5)c(Oc5cnc6[nH]cc(F)c6c5)c3)C4)[C@H](c3ccccc3C(C)C)C2)cc2cc(C)oc12",
    "classification": "rule met"
  }
]

* * *

- study-target: recombinant human Bcl-2-G101V protein (Homo sapiens (Human), UniProt P10415, G101V)
- assay-info: Bcl-2-G101V TR-FRET Assay
- Assay type: binding
- experimental-context: Bcl-2 G101V mutant, TR-FRET; read-out: Biochemical assay (IC50, nM) Bcl-2 G101V

[
  {
    "molecule": "COc1cc(CN2CCN(C3CC4(C3)CN(c3ccc(C(=O)NS(=O)(=O)c5ccc(NC[C@H]6CC[C@](C)(O)CC6)c([N+](=O)[O-])c5)c(Oc5cnc6[nH]ccc6c5)c3)C4)[C@H](c3ccccc3C(C)C)C2)cc2c1OC(C)(C)CC2",
    "IC50 (nM)": 0.38
  },
  {
    "molecule": "COc1cc(CN2CCN(C3CC4(CCN(c5ccc(C(=O)NS(=O)(=O)c6ccc(NC[C@H]7CC[C@](C)(O)CC7)c([N+](=O)[O-])c6)c(Oc6cnc7[nH]cc(F)c7c6)c5)CC4)C3)C(c3ccccc3C(C)C)C2)ccc1C1CC1 (stereo partly shown)",
    "IC50 (nM)": 3.9
  },
  {
    "molecule": "COc1cc(CN2CCN(C3CC4(C3)CN(c3ccc(C(=O)NS(=O)(=O)c5ccc(NC[C@H]6CC[C@](C)(O)CC6)c([N+](=O)[O-])c5)c(Oc5cnc6[nH]ccc6c5)c3)C4)[C@H](c3ccccc3C(C)C)C2)cc(C)c1OC",
    "IC50 (nM)": 0.32
  },
  {
    "molecule": "CCc1ccc(CN2CCN(C3CC4(CCN(c5ccc(C(=O)NS(=O)(=O)c6ccc(NC[C@H]7CC[C@](C)(O)CC7)c([N+](=O)[O-])c6)c(Oc6cnc7[nH]cc(F)c7c6)c5)CC4)C3)[C@H](c3ccccc3C(C)C)C2)cc1OC",
    "IC50 (nM)": 4.1
  }
]

* * *

Below: a set of entries, each annotated with reported IC50.
- study-target: Recombinant human Bcl-2 protein (Homo sapiens (Human), UniProt P10415)
- assay-info: Bcl-2 TR-FRET Assay
- Format: binding
- experimental-context: wild type Bcl-2; unit inferred; read-out: Bcl-2 WT

[
  {
    "compound": "COc1ccc(CN2CCN(C3CC4(CCN(c5ccc(C(=O)NS(=O)(=O)c6ccc(NC[C@H]7CC[C@](C)(O)CC7)c([N+](=O)[O-])c6)c(Oc6cnc7[nH]ccc7c6)c5)CC4)C3)C(c3ccccc3C(C)C)C2)nc1OC (stereo partly shown) [Example 194]",
    "study-target": "Recombinant human Bcl-2 protein (Homo sapiens (Human), UniProt P10415)",
    "quantity-unit": "nM",
    "IC50": 0.051
  },
  {
    "compound": "COc1cc(CN2CCN(C3CC4(CCN(c5ccc(C(=O)NS(=O)(=O)c6ccc(NC[C@H]7CC[C@](C)(O)CC7)c([N+](=O)[O-])c6)c(Oc6cnc7[nH]cc(F)c7c6)c5)CC4)C3)[C@H](c3ccccc3C(C)C)C2)cc2c1OCC2(C)C [Example 285]",
    "study-target": "Recombinant human Bcl-2 protein (Homo sapiens (Human), UniProt P10415)",
    "quantity-unit": "nM",
    "IC50": 0.26
  },
  {
    "compound": "Cc1ccc(CN2CCN(C3CC4(CCN(c5ccc(C(=O)NS(=O)(=O)c6ccc(NC[C@H]7CC[C@](C)(O)CC7)c([N+](=O)[O-])c6)c(Oc6cnc7[nH]ccc7c6)c5)CC4)C3)C(c3ccccc3C(C)C)C2)cc1 (stereo partly shown) [Example 30]",
    "study-target": "Recombinant human Bcl-2 protein (Homo sapiens (Human), UniProt P10415)",
    "quantity-unit": "nM",
    "IC50": 0.27
  },
  {
    "compound": "CC(C)c1ccccc1C1CN(Cc2cnn(C)c2)CCN1C1CC2(CCN(c3ccc(C(=O)NS(=O)(=O)c4ccc(NC[C@H]5CC[C@](C)(O)CC5)c([N+](=O)[O-])c4)c(Oc4cnc5[nH]ccc5c4)c3)CC2)C1 (single isomer, unassigned) [Example 22a]",
    "study-target": "Recombinant human Bcl-2 protein (Homo sapiens (Human), UniProt P10415)",
    "quantity-unit": "nM",
    "IC50": 0.0079
  },
  {
    "compound": "CC(C)c1ccccc1C1CN(Cc2ccc3occc3c2)CCN1C1CC2(CCN(c3ccc(C(=O)NS(=O)(=O)c4ccc(NC[C@H]5CC[C@](C)(O)CC5)c([N+](=O)[O-])c4)c(Oc4cnc5[nH]ccc5c4)c3)CC2)C1 (stereo partly shown) [Example 96]",
    "study-target": "Recombinant human Bcl-2 protein (Homo sapiens (Human), UniProt P10415)",
    "quantity-unit": "nM",
    "IC50": 0.041
  },
  {
    "compound": "COc1ccc(CN2CCN(C3CC4(C3)CN(c3ccc(C(=O)NS(=O)(=O)c5ccc(NC[C@H]6CC[C@](C)(O)CC6)c([N+](=O)[O-])c5)c(Oc5cnc6[nH]ccc6c5)c3)C4)[C@H](c3ccccc3C(C)C)C2)cc1 [Example 147]",
    "study-target": "Recombinant human Bcl-2 protein (Homo sapiens (Human), UniProt P10415)",
    "quantity-unit": "nM",
    "IC50": 0.054
  },
  {
    "compound": "COc1cc(CN2CCN(C3CC4(C3)CN(c3ccc(C(=O)NS(=O)(=O)c5ccc(NC[C@H]6CC[C@](C)(O)CC6)c([N+](=O)[O-])c5)c(Oc5cnc6[nH]cc(F)c6c5)c3)C4)[C@H](c3ccccc3C(C)C)C2)cc2ccoc12 [Example 306]",
    "study-target": "Recombinant human Bcl-2 protein (Homo sapiens (Human), UniProt P10415)",
    "quantity-unit": "nM",
    "IC50": 0.31
  },
  {
    "compound": "[2H]C([2H])([2H])Oc1cc(CN2CCN(C3CC4(C3)CN(c3ccc(C(=O)NS(=O)(=O)c5ccc(NC[C@H]6CC[C@](C)(O)CC6)c([N+](=O)[O-])c5)c(Oc5cnc6[nH]cc(F)c6c5)c3)C4)[C@H](c3ccccc3C(C)C)C2)cc2c1OCC2(C)C [Example 326]",
    "study-target": "Recombinant human Bcl-2 protein (Homo sapiens (Human), UniProt P10415)",
    "quantity-unit": "nM",
    "IC50": 0.17
  },
  {
    "compound": "COc1cc(CN2CCN(C3CC4(C3)CN(c3ccc(C(=O)NS(=O)(=O)c5ccc(NC[C@H]6CC[C@](C)(O)CC6)c([N+](=O)[O-])c5)c(Oc5cnc6[nH]cc(F)c6c5)c3)C4)[C@H](c3ccccc3C(C)C)C2)ccc1C1CC1 [Example 232]",
    "study-target": "Recombinant human Bcl-2 protein (Homo sapiens (Human), UniProt P10415)",
    "quantity-unit": "nM",
    "IC50": 0.59
  },
  {
    "compound": "COc1cc(CN2CCN(C3CC4(C3)CN(c3ccc(C(=O)NS(=O)(=O)c5ccc(NC[C@H]6CC[C@](C)(O)CC6)c([N+](=O)[O-])c5)c(Oc5cnc6[nH]cc(F)c6c5)c3)C4)[C@H](c3ccccc3C(C)C)C2)cc(C)c1OC [Example 231]",
    "study-target": "Recombinant human Bcl-2 protein (Homo sapiens (Human), UniProt P10415)",
    "quantity-unit": "nM",
    "IC50": 0.27
  },
  {
    "compound": "COc1cc(CN2CCN(C3CC4(CCN(c5ccc(C(=O)NS(=O)(=O)c6ccc(NC[C@H]7CC[C@](C)(O)CC7)c([N+](=O)[O-])c6)c(Oc6cnc7[nH]ccc7c6)c5)CC4)C3)C(c3ccccc3C(C)C)C2)ccc1F (stereo partly shown) [Example 121]",
    "study-target": "Recombinant human Bcl-2 protein (Homo sapiens (Human), UniProt P10415)",
    "quantity-unit": "nM",
    "IC50": 0.28
  },
  {
    "compound": "COc1cc(CN2CCN(C3CC4(C3)CN(c3ccc(C(=O)NS(=O)(=O)c5ccc(NC[C@H]6CC[C@](C)(O)CC6)c([N+](=O)[O-])c5)c(Oc5cnc6[nH]ccc6c5)c3)C4)[C@H](c3ccccc3C(C)C)C2)cc2c1OCC2(C)C [Example 296]",
    "study-target": "Recombinant human Bcl-2 protein (Homo sapiens (Human), UniProt P10415)",
    "quantity-unit": "nM",
    "IC50": 0.13
  },
  {
    "compound": "COc1ccc(CN2CCN(C3CC4(C3)CN(c3ccc(C(=O)NS(=O)(=O)c5ccc(NC[C@H]6CC[C@](C)(O)CC6)c([N+](=O)[O-])c5)c(Oc5cnc6[nH]cc(F)c6c5)c3)C4)[C@H](c3ccccc3C(C)C)C2)nc1 [Example 241]",
    "study-target": "Recombinant human Bcl-2 protein (Homo sapiens (Human), UniProt P10415)",
    "quantity-unit": "nM",
    "IC50": 0.035
  },
  {
    "compound": "COc1ccc(CN2CCN(C3CC4(C3)CN(c3ccc(C(=O)NS(=O)(=O)c5ccc(NC[C@H]6CC[C@](C)(O)CC6)c([N+](=O)[O-])c5)c(Oc5cnc6[nH]cc(F)c6c5)c3)C4)[C@H](c3ccccc3C(C)C)C2)cc1OC [Example 141a]",
    "study-target": "Recombinant human Bcl-2 protein (Homo sapiens (Human), UniProt P10415)",
    "quantity-unit": "nM",
    "IC50": 0.054
  },
  {
    "compound": "CNc1ccc(CN2CCN(C3CC4(C3)CN(c3ccc(C(=O)NS(=O)(=O)c5ccc(NC[C@H]6CC[C@](C)(O)CC6)c([N+](=O)[O-])c5)c(Oc5cnc6[nH]cc(F)c6c5)c3)C4)[C@H](c3ccccc3C(C)C)C2)cc1OC [Example 358]",
    "study-target": "Recombinant human Bcl-2 protein (Homo sapiens (Human), UniProt P10415)",
    "quantity-unit": "nM",
    "IC50": 0.1
  },
  {
    "compound": "COc1cc(CN2CCN(C3CC4(C3)CN(c3ccc(C(=O)NS(=O)(=O)c5ccc(NC[C@H]6CC[C@](C)(O)CC6)c([N+](=O)[O-])c5)c(Oc5cnc6[nH]ccc6c5)c3)C4)[C@H](c3ccccc3C(C)C)C2)ccc1C [Example 275]",
    "study-target": "Recombinant human Bcl-2 protein (Homo sapiens (Human), UniProt P10415)",
    "quantity-unit": "nM",
    "IC50": 0.27
  }
]
